assay: NCI Yeast Anticancer Drug Screen. Data for the bub3 strain (AID 167); details: S. cerevisiae bub3 mutant strain, at 50.0 µM
About 79,000 compounds went through this panel and 15% of them were active in at least one assay; those are over-represented in the sample as a whole. The source made the active and inactive calls. Rule as the data show it: active = growth inhibition above about 70%; inactive = the rest.
Labels: T = active, F = inactive

Molecule | Cat
COc1cc(/C=N/N=C(\N)NO)cc(Cl)c1O | F
Cc1cnc(C)c(C(O)c2ccccc2)n1 (stereo not given) | F
N=C(N)SCC(=O)c1ccc([N+](=O)[O-])cc1 | F
CCCCOB1OC(c2ccccc2)(c2ccccc2)c2ccccc2C(c2ccccc2)(c2ccccc2)O1 | F
O=C(c1ccc(Cl)cc1)N(C(=S)N1CCN(c2ccccc2)CC1)c1ccccc1 | F
Cc1c(N/C=C(\C#N)C(=O)c2ccc(Cl)cc2)c(=O)n(-c2ccccc2)n1C | F
O=C(C=c1sc(=CC(=O)c2ccccc2)s1)c1ccccc1 | F
CN1[C@@H]2C[C@@H](OC(=O)[C@H](CO)c3ccccc3)C[C@H]1[C@@H]1O[C@@H]12 | F
CCNc1ncc2nc(CC(=O)OC)c(=O)n(CC)c2n1 | F
CC1(C(=O)O)CCCC2(C)c3ccc(O)cc3CCC12 (stereo not given) | F
CNC(=O)O[C@H]1C(=O)O[C@@H]2C[C@H]3C(C)=C(O)C(=O)C[C@]3(C)[C@H]3[C@@H](O)[C@H](O)[C@@]4(C(=O)OC)OC[C@]32[C@@H]14 | F
CN1c2ccccc2N(C(=O)c2ccccc2)C(CC(=O)O)c2cccn21 (stereo not given) | F
C=C(COC(=O)C(C)C)[C@H]1Oc2ccc(C(C)=O)cc2[C@@H]1OC(=O)C(C)C | F
N#C/C(=C\c1ccco1)C(=O)Nc1ccc(Br)cc1 | F
CCCCCCCCCCCCCCC[N+](C)(C)C | T
C[N+](C)(CCS(=O)(=O)[O-])C1CCCCC1 | F
CCCCCCC(NC(C)=O)C(=O)O (stereo not given) | F
Clc1ccc(CSc2cnnc(SCc3ccc(Cl)c(Cl)c3)c2SCc2ccc(Cl)c(Cl)c2)cc1Cl | F
COC(=O)C1OC(n2ccc(=O)[nH]c2=O)C(OC(C)=O)C(OC(C)=O)C1OC(C)=O (stereo not given) | F
c1ccc(C2N3CCCCC3[C@@H]3c4[nH]c5ccccc5c4CCN23)nc1 (stereo not given in full) | F
CCCCCCCCCCCCCCCCOc1ccc(C(=O)O)cc1 | F
CC(C)NP(=O)(OC1CC(C)(C)N(O)C(C)(C)C1)OC1CC(C)(C)N(O)C(C)(C)C1 | F
CCOC(=O)c1c(-c2ccc(Cl)cc2)c(C#N)c(=S)n(C2OC(COC(C)=O)C(OC(C)=O)C(OC(C)=O)C2OC(C)=O)c1C (stereo not given) | F
ClCc1c(-c2ccccc2)nn(-c2ccccc2)c1CCl | F
C[N+](C)(C)c1cc[c]([Sn]([c]2ccc([N+](C)(C)C)cc2)([c]2ccc([N+](C)(C)C)cc2)[c]2ccc([N+](C)(C)C)cc2)cc1 | F
CCOC(=O)NC1OC(C(N)=O)C(O)C(O)C1O (stereo not given) | F
c1ccc(N2CCN(CCCN3CCc4c([nH]c5ccccc45)C3c3cccnc3)CC2)cc1 (stereo not given) | F
CCCCCCCC/C(C=O)=C\c1ccc(C)cc1 | F
CCCCSc1ncnc2nc(C)[nH]c12 | F
COc1ccc(C2Cc3cc(OC)c(OC)cc3C(c3ccccc3)N2)cc1OC (stereo not given) | F
O=S(O)c1cc(Cl)c(O)c(Cl)c1 | F
Cc1cc(N(CCC#N)CCC#N)ccc1/C=C1N=C(/C=C\c2ccccc2)OC\1=O | F
O=C1C(Cl)N(c2ccccc2[N+](=O)[O-])C1c1c[nH]c2ccccc12 (stereo not given) | F
O=S(=O)(O)c1cccc2c1oc1ccccc12 | F
O=C(N/N=C\c1ccc(Cl)cc1Cl)c1ccccc1S | F
C=C(C)C(CCC)(C(=O)OCC)C(=O)OCC | F
NCCCCC(N)C(=O)O.[Cu+2] (stereo not given) | F
COc1ccc(Nc2nnc(-c3nsc4ccccc34)s2)cc1 | F
NCCNC(=O)Cc1cccs1 | F
OCC1(CO)CCCO1 | F
CC(C)(C)/C=N/Nc1ccc([N+](=O)[O-])cc1[N+](=O)[O-] | F
COc1nc(NC2OCC(O)C(O)C2O)c(Br)c(=O)n1C (stereo not given) | F
O=C1c2ccccc2C(=O)c2c(Cl)cccc21 | F
CC(=O)Oc1ccccc1C=C(C(=O)O)C(=O)O | F
CC(C)CC(C)N=C1CC2CCC1(C)C2(C)C (stereo not given) | F
